- EXPERIMENT_DESCRIPTION: Study 2: dose escalation study of IV baclofen in healthy adult volunteers
- Format: in vivo, human
- REPORTED_CONDITIONS: human, plasma; cohort 2 (11.5 mg IV, 15 mg oral); read-out: bioavailability estimate
EXPERIMENTAL_READOUT: bioavailability (%)
Your answer should be a plain number; it is taken to be in %.

QUERY: Consider the compound NCC(CC(=O)O)c1ccc(Cl)cc1 (stereo not shown) [baclofen, 4-amino-3-[4-chlorophenyl] butanoic acid] . State its measured bioavailability.
RESULT: 85.8

---

- EXPERIMENT_DESCRIPTION: Clinical bioequivalence study of baclofen injection compared to baclofen tablets in healthy adult volunteers
- Type: in vivo, human
- REPORTED_CONDITIONS: human, plasma, other: intravenous infusions and oral tablet; IV infusions and oral tablet; read-out: mean T1/2
EXPERIMENTAL_READOUT: half-life

QUERY: Consider the compound NCC(CC(=O)O)c1ccc(Cl)cc1 (stereo not shown) [baclofen, 4-amino-3-[4-chlorophenyl] butanoic acid] . State its measured half-life.
RESULT: 5.5 to 5.8 h
